- system-name: Recombinant human Bcl-2 protein (Homo sapiens (Human), UniProt P10415)
- Sequence (P10415 whole entry): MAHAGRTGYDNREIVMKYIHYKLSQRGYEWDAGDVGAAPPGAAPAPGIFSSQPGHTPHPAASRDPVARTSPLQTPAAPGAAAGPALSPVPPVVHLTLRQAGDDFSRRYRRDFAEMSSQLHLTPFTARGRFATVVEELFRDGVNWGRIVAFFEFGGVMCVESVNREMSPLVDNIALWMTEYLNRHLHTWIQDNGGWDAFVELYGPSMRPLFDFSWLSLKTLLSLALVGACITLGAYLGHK
- experimental-details: Bcl-2 TR-FRET Assay
- Type: binding
- condition-summary: Bcl-2 wild type, TR-FRET; read-out: Biochemical assay (IC50, nM) Bcl-2 WT
Checkbox rule: IC50 lower than 0.2 nM = label 1; IC50 not lower than 0.2 nM = label 0.

Solved entries:
compound	answer-label
CC(C)c1ccccc1C1CN(C(C)c2ccccc2)CCN1C1CC2(CCN(c3ccc(C(=O)NS(=O)(=O)c4ccc(NC[C@H]5CC[C@](C)(O)CC5)c([N+](=O)[O-])c4)c(Oc4cnc5[nH]ccc5c4)c3)CC2)C1 (single isomer, unassigned) [Example 24a]	label 0
COc1ccc(CN2CCN(C3CC4(CCN(c5ccc(C(=O)NS(=O)(=O)c6ccc(NC[C@H]7CC[C@](C)(O)CC7)c([N+](=O)[O-])c6)c(Oc6cnc7[nH]cc(F)c7c6)c5)CC4)C3)[C@H](c3ccccc3C(C)C)C2)cn1	label 1
CC(C)c1ccccc1C1CN(Cc2ccc(F)cc2F)CCN1C1CC2(CCN(c3ccc(C(=O)NS(=O)(=O)c4ccc(NC[C@H]5CC[C@](C)(O)CC5)c([N+](=O)[O-])c4)c(Oc4cnc5[nH]ccc5c4)c3)CC2)C1 (some centres unmarked)	label 1

Determine if COc1ccc(CN2CCN(C3CC4(CCN(c5ccc(C(=O)NS(=O)(=O)c6cc7c(c([N+](=O)[O-])c6)N[C@H](C[C@H]6CC[C@H](O)CC6)CO7)c(Oc6cnc7[nH]ccc7c6)c5)CC4)C3)[C@H](c3ccccc3C(C)C)C2)cc1 shows IC50 strictly lower than 0.2 nM.
label 1

Dear reviewer, please state whether COc1ccc(CN2CCN(C3CC4(C3)CN(c3ccc(C(=O)NS(=O)(=O)c5ccc(NC[C@H]6CC[C@](C)(O)CC6)c([N+](=O)[O-])c5)c(Oc5cnc6[nH]ccc6c5)c3)C4)C(c3ccccc3C(C)C)C2)cc1 (some centres unmarked) has IC50 strictly beneath 0.2 nM.
label 1
